# targetUnderTest: human CARM1 (PRMT4) (Flag- and His-tagged) (Homo sapiens, UniProt Q86X55)
# Construct: Flag-CARM1-His; made in house; host or cells: HEK 293F cells (BacMam baculovirus)
# Sequence (Q86X55 1-585 isoform Q86X55-1): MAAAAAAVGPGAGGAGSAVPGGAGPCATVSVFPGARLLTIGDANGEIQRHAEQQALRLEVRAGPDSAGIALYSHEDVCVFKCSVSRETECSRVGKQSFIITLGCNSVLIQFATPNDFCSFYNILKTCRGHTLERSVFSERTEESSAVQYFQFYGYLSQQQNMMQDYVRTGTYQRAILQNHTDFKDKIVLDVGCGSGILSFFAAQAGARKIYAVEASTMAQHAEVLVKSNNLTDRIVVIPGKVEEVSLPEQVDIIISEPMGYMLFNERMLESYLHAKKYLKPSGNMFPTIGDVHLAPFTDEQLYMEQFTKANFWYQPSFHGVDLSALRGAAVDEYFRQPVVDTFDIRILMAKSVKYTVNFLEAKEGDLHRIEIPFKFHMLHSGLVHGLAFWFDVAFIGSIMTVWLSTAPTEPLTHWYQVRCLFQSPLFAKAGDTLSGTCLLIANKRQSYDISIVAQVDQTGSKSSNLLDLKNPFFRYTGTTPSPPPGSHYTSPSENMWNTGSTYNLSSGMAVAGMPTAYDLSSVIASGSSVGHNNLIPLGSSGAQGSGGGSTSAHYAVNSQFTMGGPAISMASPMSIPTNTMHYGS
# testMethodNotes: CARM1 Biochemical Assay (3H-SAM Flashplate, peptide substrate)
# testConditions: single experiment or average of multiple experiments
# IC50 annotations

- smi: "CNCCN(C)Cc1c[nH]nc1/C=C/c1ccc(-c2ccccc2)cc1"
  IC50 (nM): 310
- smi: "CNCCN(C)Cc1c[nH]nc1/C=C/c1ccc(C(F)(F)F)cc1"
  IC50 (nM): 570
- smi: "CN(CCN)Cc1c[nH]nc1C1CCCCC1"
  IC50 (nM): 3770
- smi: "CNCCN(C)Cc1c[nH]nc1C#Cc1cccc(OC)c1"
  IC50 (nM): 260
